Provenance of the data: paper PMC10836395

target under test: CATPO E484D variant (Scytalidium thermophilum (Humicola insolens), UniProt M4GGR5, E503D)
experiment: biochemical
Mark each entry T if its Ki sits below 4 mM, and F for all others.

Worked set:
>  <compound>
Nc1nc[nH]n1

>  <group>
F

$$$$
>  <compound>
CC(C)(C)c1ccc(O)c(O)c1

>  <group>
T

$$$$
>  <compound>
O=C(NO)c1ccccc1O [Salicylhydroxamic acid, salicylhydroxamic acid]

>  <group>
T

$$$$
>  <compound>
Cc1ccc(O)c(O)c1

>  <group>
T

$$$$

Next compound, please.
Exam item: Strictly below 4 mM: is that where Ki of Oc1ccc(O)cc1 [Hydroquinone, p-hydroquinone] sits?
Marked response: F

###

target under test: CATPO E484D variant (Scytalidium thermophilum (Humicola insolens), UniProt M4GGR5, E503D)
Type: biochemical
Marks after values point to notes of the source that are not given here.
Field: k cat/K m. Provide a value for each of the compounds that follow.

Quick request: k cat/K m for each listed item, please.
1. Oc1ccccc1O [Catechol, catechol]
2. CCn1c(=NN=c2sc3cc(S(=O)(=O)O)ccc3n2CC)sc2cc(S(=O)(=O)O)ccc21 [ABTS]
3. Cc1ccc(O)c(O)c1 [4-Methylcatechol, 4-methylcatechol]
4. Oc1ccc(O)cc1 [Hydroquinone, p-hydroquinone]
5. CC(C)(C)c1ccc(O)c(O)c1 [1,4-tert-Butylcatechol, 4-tert-butylcatechol]
6. Oc1cccc(O)c1O [Pyrogallol, pyrogallol]

Marked response:
["2100 ± 105 s^−1 M^−1 (×10^2)", "100 ± 10 s^−1 M^−1 (×10^2)", "1500 ± 88 s^−1 M^−1 (×10^2)", "300 ± 50 s^−1 M^−1 (×10^2)", "1300 ± 100 s^−1 M^−1 (×10^2)", "600 ± 50 s^−1 M^−1 (×10^2)"]

###

target under test: CATPO T188A variant (Scytalidium thermophilum (Humicola insolens), UniProt M4GGR5, T207A)
Assay type: biochemical
Mark each entry Fulfilled if its V max sits below 20000 mM/min, and Not fulfilled for all others.

Exam item: Strictly below 20000 mM/min: is that where V max of Oc1cccc(O)c1O [Pyrogallol, pyrogallol] sits?
Marked response: Fulfilled

Exam item: Strictly below 20000 mM/min: is that where V max of CCn1c(=NN=c2sc3cc(S(=O)(=O)O)ccc3n2CC)sc2cc(S(=O)(=O)O)ccc21 [ABTS] sits?
Marked response: Fulfilled

Exam item: Strictly below 20000 mM/min: is that where V max of Oc1ccccc1O [Catechol, catechol] sits?
Marked response: Not fulfilled

Exam item: Strictly below 20000 mM/min: is that where V max of Cc1ccc(O)c(O)c1 [4-Methylcatechol, 4-methylcatechol] sits?
Marked response: Not fulfilled

Exam item: Strictly below 20000 mM/min: is that where V max of Oc1ccc(O)cc1 [Hydroquinone, p-hydroquinone] sits?
Marked response: Fulfilled

###

Field: V max. Provide a value for each of the compounds that follow.
target under test: CATPO T188I variant (Scytalidium thermophilum (Humicola insolens), UniProt M4GGR5, T207I)
Sequence (M4GGR5 entry or part of it T207I): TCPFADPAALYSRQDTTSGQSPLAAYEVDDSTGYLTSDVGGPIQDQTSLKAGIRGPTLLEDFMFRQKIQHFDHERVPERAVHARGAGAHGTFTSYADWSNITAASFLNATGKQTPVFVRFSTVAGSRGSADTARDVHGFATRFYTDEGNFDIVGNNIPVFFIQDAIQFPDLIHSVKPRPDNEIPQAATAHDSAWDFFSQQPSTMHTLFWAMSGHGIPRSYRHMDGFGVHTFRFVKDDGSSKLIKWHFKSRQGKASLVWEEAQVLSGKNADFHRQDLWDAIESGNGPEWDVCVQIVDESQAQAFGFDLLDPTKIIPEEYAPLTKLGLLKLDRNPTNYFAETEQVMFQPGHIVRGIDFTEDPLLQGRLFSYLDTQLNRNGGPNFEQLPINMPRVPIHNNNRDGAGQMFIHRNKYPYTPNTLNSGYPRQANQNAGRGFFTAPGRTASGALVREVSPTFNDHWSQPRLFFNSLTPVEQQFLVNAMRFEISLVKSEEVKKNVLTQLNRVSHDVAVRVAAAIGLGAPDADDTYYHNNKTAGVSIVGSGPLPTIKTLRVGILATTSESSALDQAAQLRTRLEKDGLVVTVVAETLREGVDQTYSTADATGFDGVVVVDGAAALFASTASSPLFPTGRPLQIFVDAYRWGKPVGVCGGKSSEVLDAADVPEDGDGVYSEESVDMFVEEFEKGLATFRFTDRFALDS
Assay type: biochemical
One number for each entry, in mM/min.

Some solved cases for reference:
>  <compound>
Cc1ccc(O)c(O)c1

>  <measurement>
43000

$$$$
>  <compound>
Oc1ccccc1O

>  <measurement>
65000

$$$$

Quick request: V max for each listed item, please.
1. CCn1c(=NN=c2sc3cc(S(=O)(=O)O)ccc3n2CC)sc2cc(S(=O)(=O)O)ccc21
2. CC(C)(C)c1ccc(O)c(O)c1
3. Oc1cccc(O)c1O

Marked response:
1: 6000; 2: 30500; 3: 27400

Exam item: Entry Oc1ccc(O)cc1 [Hydroquinone, p-hydroquinone] , system CATPO T188I variant (Scytalidium thermophilum (Humicola insolens), UniProt M4GGR5, T207I): what V max was measured?
Marked response: 11000

###

Field: Ki. Provide a value for each of the molecules that follow.
target under test: CATPO E484A variant (Scytalidium thermophilum (Humicola insolens), UniProt M4GGR5, E503A)
experiment: biochemical
details: catechol oxidation by E484A; read-out: K i
Answers are plain numbers, in mM.

Some solved cases for reference:
>  <molecule>
CCn1c(=NN=c2sc3cc(S(=O)(=O)O)ccc3n2CC)sc2cc(S(=O)(=O)O)ccc21

>  <unit abbreviation>
mM

>  <Ki>
96

$$$$
>  <molecule>
[N-]=[N+]=[N-].[Na+] [Sodium azide, sodium azide]

>  <unit abbreviation>
mM

>  <Ki>
74

$$$$

Please turn your attention to the following entry.
Exam item: Entry [F-].[Na+] [NaF, sodium fluoride] , system CATPO E484A variant (Scytalidium thermophilum (Humicola insolens), UniProt M4GGR5, E503A): what Ki was measured?
Marked response: 7.8

###

target under test: CATPO T188A variant (Scytalidium thermophilum (Humicola insolens), UniProt M4GGR5, T207A)
experiment: biochemical
test readout: pKi
Give bare numbers, as −log10 of the molar value.

Some solved cases for reference:
>  <molecule>
Nc1nc[nH]n1

>  <measurement>
1.70

$$$$
>  <molecule>
Cc1ccc(O)c(O)c1

>  <measurement>
2.82

$$$$
>  <molecule>
O=C(NO)c1ccccc1O [Salicylhydroxamic acid, salicylhydroxamic acid]

>  <measurement>
2.66

$$$$

Quick request: pKi for each listed item, please.
1. Oc1cccc(O)c1O
2. CC(C)(C)c1ccc(O)c(O)c1
3. Oc1ccc(O)cc1 [Hydroquinone, p-hydroquinone]

Marked response:
1: 2.39; 2: 2.68; 3: 2.07

###

Field: pKi. Provide a value for each of the compounds that follow.
target under test: CATPO (Scytalidium thermophilum (Humicola insolens))
experiment: Inhibition of catechol oxidation
Format: biochemical
One number for each entry, as −log10 of the molar value.

>  <compound>
O=C(NO)c1ccccc1O [Salicylhydroxamic acid, salicylhydroxamic acid]

>  <pKi>
2.66

$$$$

Please turn your attention to the following entry.
Exam item: Could you share which pKi value was measured for Oc1ccc(O)cc1 [Hydroquinone, p-hydroquinone] ?
Marked response: 2.07

###

Field: log10(Ki). Provide a value for each of the compounds that follow.
target under test: CATPO E484I variant (Scytalidium thermophilum (Humicola insolens), UniProt M4GGR5, E503I)
experiment: biochemical
The common logarithm of Ki in mM is what is listed.

>  <compound>
Oc1ccc(O)cc1 [Hydroquinone, p-hydroquinone]

>  <log10(Ki)>
1.85

$$$$
>  <compound>
O=C(NO)c1ccccc1O [Salicylhydroxamic acid, salicylhydroxamic acid]

>  <log10(Ki)>
0.73

$$$$
>  <compound>
CC(C)(C)c1ccc(O)c(O)c1

>  <log10(Ki)>
1.70

$$$$
>  <compound>
Nc1nc[nH]n1

>  <log10(Ki)>
1.60

$$$$
>  <compound>
Cc1ccc(O)c(O)c1

>  <log10(Ki)>
1.66

$$$$

Please turn your attention to the following entry.
Exam item: Could you share which log10(Ki) value was measured for "Oc1cccc(O)c1O" ?
Marked response: 1.76

###

target under test: CATPO T188A variant (Scytalidium thermophilum (Humicola insolens), UniProt M4GGR5, T207A)
experiment: biochemical
details: catechol oxidation by T188A; read-out: K i
Field: Ki. Provide a value for each of the compounds that follow.
Give bare numbers, in mM.

Some solved cases for reference:
>  <compound>
[N-]=[N+]=[N-].[Na+] [Sodium azide, sodium azide]

>  <target under test>
CATPO T188A variant (Scytalidium thermophilum (Humicola insolens), UniProt M4GGR5, T207A)

>  <Ki, mM>
42

$$$$
>  <compound>
[F-].[Na+] [NaF, sodium fluoride]

>  <target under test>
CATPO T188A variant (Scytalidium thermophilum (Humicola insolens), UniProt M4GGR5, T207A)

>  <Ki, mM>
0.65

$$$$

Exam item: Could you share which Ki value was measured for "CCn1c(=NN=c2sc3cc(S(=O)(=O)O)ccc3n2CC)sc2cc(S(=O)(=O)O)ccc21" ?
Marked response: 12

###

target under test: CATPO E484D variant (Scytalidium thermophilum (Humicola insolens), UniProt M4GGR5, E503D)
Type: biochemical
test readout: V max (mM/min)
Give bare numbers, in mM/min.

Some solved cases for reference:
>  <compound>
Oc1cccc(O)c1O

>  <test readout>
V max

>  <measurement>
16800

$$$$
>  <compound>
Oc1ccc(O)cc1 [Hydroquinone, p-hydroquinone]

>  <test readout>
V max

>  <measurement>
9900

$$$$
>  <compound>
CCn1c(=NN=c2sc3cc(S(=O)(=O)O)ccc3n2CC)sc2cc(S(=O)(=O)O)ccc21

>  <test readout>
V max

>  <measurement>
5500

$$$$
>  <compound>
Cc1ccc(O)c(O)c1

>  <test readout>
V max

>  <measurement>
20600

$$$$
>  <compound>
Oc1ccccc1O

>  <test readout>
V max

>  <measurement>
23000

$$$$

Please turn your attention to the following entry.
Exam item: Entry "CC(C)(C)c1ccc(O)c(O)c1" , system CATPO E484D variant (Scytalidium thermophilum (Humicola insolens), UniProt M4GGR5, E503D): what V max was measured?
Marked response: 18800
